A collection of binders and their measured glycan array binding signal (z-score)
# target or system: Gal(a1-3)Gal(b1-3)GlcNAc
# assay: glycan array binding signal (z-score within array); higher = stronger binding
# condition context: glycan notation: IUPAC condensed, linker removed
This is one part of a sample in which the strongest signals are shown more often than they occur.
measurement kind: glycan array binding signal (z-score)

{"columns": ["binder", "measurement kind", "recorded measurement"],
 "data": [
  ["MXA PilAct-eGFP (Myxococcus xanthus), Q59589 (protein) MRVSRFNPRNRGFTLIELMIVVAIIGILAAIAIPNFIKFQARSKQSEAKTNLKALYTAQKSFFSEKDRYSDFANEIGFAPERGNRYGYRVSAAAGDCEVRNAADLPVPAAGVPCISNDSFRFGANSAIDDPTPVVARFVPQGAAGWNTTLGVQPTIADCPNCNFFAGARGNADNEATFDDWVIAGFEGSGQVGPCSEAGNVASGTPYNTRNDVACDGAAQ", "glycan array binding signal (z-score)", -1.1],
  ["Langerin CRD (Homo sapiens), Q9UJ71 (protein) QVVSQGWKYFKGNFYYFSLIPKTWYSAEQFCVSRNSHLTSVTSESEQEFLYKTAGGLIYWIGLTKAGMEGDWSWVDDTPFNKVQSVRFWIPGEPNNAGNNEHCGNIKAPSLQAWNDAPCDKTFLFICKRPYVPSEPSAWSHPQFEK", "glycan array binding signal (z-score)", -0.623]
]}
